Value source: ChEMBL document CHEMBL1926680

Target: Neuraminidase (Influenza A virus (strain A/Brevig Mission/1/1918 H1N1) (Influenza Avirus (strain A/South Carolina/1/1918 H1N1)))
Sequence (Q9IGQ6 whole entry): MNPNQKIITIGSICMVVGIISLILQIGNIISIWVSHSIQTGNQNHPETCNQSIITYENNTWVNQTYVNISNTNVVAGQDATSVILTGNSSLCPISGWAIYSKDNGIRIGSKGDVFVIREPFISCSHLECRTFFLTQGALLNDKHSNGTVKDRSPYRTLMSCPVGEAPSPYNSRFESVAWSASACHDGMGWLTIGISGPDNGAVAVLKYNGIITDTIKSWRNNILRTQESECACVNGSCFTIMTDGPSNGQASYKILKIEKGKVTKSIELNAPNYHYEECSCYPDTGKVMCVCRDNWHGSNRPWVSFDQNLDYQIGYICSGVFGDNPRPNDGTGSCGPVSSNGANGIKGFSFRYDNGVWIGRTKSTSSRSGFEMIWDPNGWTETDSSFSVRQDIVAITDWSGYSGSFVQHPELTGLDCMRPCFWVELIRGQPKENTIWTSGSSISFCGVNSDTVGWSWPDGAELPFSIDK
Experiment: Inhibition of Influenza A virus (A/Brevig Mission/1/1918(H1N1)) recombinant soluble neuraminidase using 2'-4(methylumbelliferyl)-alpha-D-N-acetylneuraminic acid substrate by fluorimetric assay
This section presents molecules with their documented IC50 values.
The reply should be a number in µM, with the unit left off.

Some molecules with recorded IC50:
{"MOLECULE": "N[C@H]1CC[C@@](O)(C(=O)O)C1", "MEASURED ENDPOINT": "IC50", "OBSERVED": 37000}
{"MOLECULE": "CCC(CC)[C@H](NC(C)=O)[C@@H]1[C@H](O)[C@@H](C(=O)O)C[C@H]1N", "MEASURED ENDPOINT": "IC50", "OBSERVED": 0.0177}
{"MOLECULE": "CCC(CC)[C@H](NC(C)=O)[C@@H]1[C@H](O)[C@@H](C(=O)O)C[C@H]1NC(=N)N [PERAMIVIR ANHYDROUS]", "MEASURED ENDPOINT": "IC50", "OBSERVED": 0.0034}

# ---- query molecule ----
Consider the molecule shown here: N=C(N)N[C@H]1CC[C@@](O)(C(=O)O)C1 What is its recorded IC50?
4000
